molecular target: T1, human PDGFRb.hFc (human); test: SPR, mAb captured, 25 C
T1 construct: Soluble dimeric construct with human Fc; also called hPDGFRb.hFc
METRIC_NAME: koff (s⁻¹)
Your answer is read as s⁻¹, so omit the unit and give the number.

I'd like to know its koff. The binder in question is H4H3094P (antibody, human IgG4, V domains shown, also called H4H3394P) VH: EVQLVESGGGLVQPGGSLRLSCAASGFTFSSYWMSWVRQAPGKGLEWVANMNQDGSETHYVDSVKGRLSISRDNAKKSLFLHMNSLRAEDTAVYFCARDLVPPRQDDYYYYFGMDVWGHGTTVTVSS VL: DIQMTQSPSTLSASVGDRVTITCRASQSISDWLAWYQQKPGKAPKLLIFKASTLESGVPSRFSGSGSGTEFTLTISSLQPDDFATYYCQQYNSYSRTFGQGTKVEIK
6.2e-05

I'd like to know its koff. The binder in question is H4H3106S (antibody, human IgG4, V domains shown, human IgG4 Fc (H4H prefix)) VH: QVQLVESGGGLVQPGGSLRLSCAASGFTFSSYWMSWVRQVPGKGLEWVANMNQDGTEKYYVDSVKGRLTISRENVKNSLYLQMNGLRAEDTAVYYCARDLVPPRQGDYYYYFGMDVWGHGTMVTVSS VL: AIQMTQSPSTLSASVGDIVTITCRASQSISDWLAWYQQKPGKAPKLLIFKASSLESGVPSRFSGSGSGTDFTLTISSLQPDDFATYYCQQYNSYSRTFGQGTKVDIK
0.000215

I'd like to know its koff. The binder in question is H4H3105S (antibody, human IgG4, V domains shown, human IgG4 Fc (H4H prefix)) VH: QVQLVESGGSLVQPGGSLRLACTASGFTFSSYWMSWVRQAPGKGLEWVANIQQDENEKYYVDSVKGRFSISRDNAKKSLYLQMNSLRVEDTAVYFCARDLVPPRQGDYYHYFGMDVWGQGTTVTVSS VL: DIQLTQSPSTLSASVGDRVTITCRASQSISDWLAWYQQKPGKAPNLLIYKASTLESGVPSRFSGSGSGTEFTLTISSLQPDDFATYYCQQYNSYSRTFGQGTKVEIK
0.000225
